# Tested on: Enterococcus faecium
# test-details: Antibacterial activity against Enterococcus faecium CT26
# Format: functional
quantity-name: MIC (µg/mL)
One number for each entry, in µg/mL.

[[record]]
compound_structure = "C=CB(Oc1cccc2cccnc12)c1ccc(Cl)cc1"
measured = 4

[[record]]
compound_structure = "Clc1ccc(B(Oc2cccc3cccnc23)c2ccc(Cl)cc2)cc1"
measured = 4

[[record]]
compound_structure = "C=CB(Oc1cccc2cccnc12)c1ccc(F)c(Cl)c1"
measured = 2

[[record]]
compound_structure = "C=CB(Oc1cccc2cccnc12)c1ccccc1"
measured = 4

[[record]]
compound_structure = "C=CB(Oc1cccc2cccnc12)c1cccc(F)c1"
measured = 2

[[record]]
compound_structure = "Cc1ccc2cccc(OB(c3ccc(Cl)cc3)c3ccc(Cl)cc3)c2n1"
measured = 16

[[record]]
compound_structure = "C=CB(Oc1cccc2cccnc12)c1cccc(C#N)c1"
measured = 2

[[record]]
compound_structure = "Clc1ccc(B(Oc2ccc(Cl)c3cccnc23)c2ccc(Cl)cc2)cc1"
measured = 2


# batch size: 2; output MIC per entry
1. C=CB(Oc1cccc2cccnc12)c1ccccc1Cl
2. Fc1ccc(B(Oc2cccc3cccnc23)c2ccc(F)cc2)cc1

[2, 32]

Value sought for every listed compound: MIC.
1. Clc1cccc(B(Oc2cccc3cccnc23)c2cccc(Cl)c2)c1
2. C=CB(Oc1cccc2cccnc12)c1cccc(Cl)c1

1. 4
2. 4

---

# Test system: Staphylococcus aureus
# test-details: Antibacterial activity against Staphylococcus aureus ATCC 29213
# Format: functional
Please respond with condition met when measured MIC is strictly beneath 2 µg/mL, and with condition not met in all other cases.

Before answering, review these 5 worked examples.
[[record]]
compound_structure = "Clc1ccc(B(Oc2ccc(Cl)c3cccnc23)c2ccc(Cl)cc2)cc1"
class_assignment = "condition met"

[[record]]
compound_structure = "Fc1ccc(B(Oc2cccc3cccnc23)c2ccc(F)cc2)cc1"
class_assignment = "condition not met"

[[record]]
compound_structure = "Clc1cccc(B(Oc2cccc3cccnc23)c2cccc(Cl)c2)c1"
class_assignment = "condition met"

[[record]]
compound_structure = "C=CB(Oc1cccc2cccnc12)c1cccc(C#N)c1"
class_assignment = "condition met"

[[record]]
compound_structure = "Clc1ccc(C(Oc2cccc3cccnc23)c2ccc(Cl)cc2)cc1"
class_assignment = "condition not met"


Alright, here's another compound for you.
Given Cc1ccc2cccc(OB(c3ccc(Cl)cc3)c3ccc(Cl)cc3)c2n1 , is recorded MIC strictly lower than 2 µg/mL?
condition not met

---

# System: Caulobacter vibrioides
# test-details: Inhibition of Caulobacter crescentus DNA methyltransferase CcrM assessed as transfer of [3H-Me] to DNA at 100 uM relative to control
Activity calls are given as the source filed them. The rule behind the calls is not given here.
Answer with one of the outcomes given here: True (active), False (inactive)

[[record]]
compound_structure = "Clc1ccc(C(Oc2cccc3cccnc23)c2ccc(Cl)cc2)cc1"
target_under_test = "Caulobacter vibrioides"
class_assignment = "False"

[[record]]
compound_structure = "Clc1ccc(B(Oc2ccc(Cl)c3cccnc23)c2ccc(Cl)cc2)cc1"
target_under_test = "Caulobacter vibrioides"
class_assignment = "True"

[[record]]
compound_structure = "Cc1ccc2cccc(OB(c3ccc(Cl)cc3)c3ccc(Cl)cc3)c2n1"
target_under_test = "Caulobacter vibrioides"
class_assignment = "True"


Fill in: this test's call for Clc1cccc(B(Oc2cccc3cccnc23)c2cccc(Cl)c2)c1 is ___
True

Then this compound: Clc1ccc(B(Oc2cccc3cccnc23)c2ccc(Cl)cc2)cc1
True
